Molecular target: human TYK2 (JH2domain-pseudokinase) (Homo sapiens (Human), UniProt P29597)
Sequence (P29597 556-888): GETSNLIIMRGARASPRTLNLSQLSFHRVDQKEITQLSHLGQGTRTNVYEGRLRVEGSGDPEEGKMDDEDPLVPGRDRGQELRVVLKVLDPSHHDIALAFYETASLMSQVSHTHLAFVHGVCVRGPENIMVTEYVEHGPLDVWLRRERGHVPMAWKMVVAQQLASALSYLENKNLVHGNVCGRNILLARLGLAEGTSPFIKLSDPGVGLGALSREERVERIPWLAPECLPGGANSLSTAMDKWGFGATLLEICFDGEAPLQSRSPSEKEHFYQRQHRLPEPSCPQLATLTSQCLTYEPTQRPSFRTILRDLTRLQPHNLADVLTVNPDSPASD
Experiment: TYK2 JH2 Domain Binding Assay (KINOMEscan)
Details: Table 4, JH2 binding assay; read-out: JH2 Kd
pKd: −log10 of the molar value.
Let's look at some compounds and their measured pKd.

| compound | pKd |
| --- | --- |
| COc1c(Cl)cccc1Nc1cc(Nc2cc(C)c(F)cn2)nc2[nH]n(C)c(=O)c12 [Compound I-95] | 8.00 to 9.00 |
| COc1c(Cl)cccc1Nc1cc(Nc2ccn(C)n2)nc2[nH]n(C)c(=O)c12 [Compound I-136] | 8.00 to 9.00 |
| CCc1ncc(Nc2cc(Nc3cccc(F)c3OC)c3c(=O)n(C)[nH]c3n2)nc1C#N [Compound I-148] | < 8.00 |
| COc1c(Cl)cccc1Nc1cc(Nc2ccc(C)nn2)nc2[nH]n(C)c(=O)c12 [Compound I-105] | 8.00 to 9.00 |
| COc1c(F)cccc1Nc1cc(Nc2cccc(N3CC(OC)C3)n2)nc2[nH]n(C)c(=O)c12 [Compound I-94] | 8.00 to 9.00 |
| COc1c(Nc2cc(Nc3ccccn3)nc3[nH]n(C)c(=O)c23)cccc1-c1nnn(C)n1 [Compound I-4] | 9.30 to 10.00 |
| COc1c(Nc2cc(Nc3cc(C#N)ncn3)nc3[nH]n(C)c(=O)c23)cccc1-c1ncn(C)n1 [Compound I-31] | > 10.00 |
| COc1c(C#N)cccc1Nc1cc(Nc2cc(C)c(F)cn2)nc2[nH]n(C)c(=O)c12 [Compound I-37] | < 8.00 |
